biological target: UniProtKB P11509; assay: Inhibition of CYP2A6 at up to 50 uM; type: ADME
Sequence (P11509 whole entry): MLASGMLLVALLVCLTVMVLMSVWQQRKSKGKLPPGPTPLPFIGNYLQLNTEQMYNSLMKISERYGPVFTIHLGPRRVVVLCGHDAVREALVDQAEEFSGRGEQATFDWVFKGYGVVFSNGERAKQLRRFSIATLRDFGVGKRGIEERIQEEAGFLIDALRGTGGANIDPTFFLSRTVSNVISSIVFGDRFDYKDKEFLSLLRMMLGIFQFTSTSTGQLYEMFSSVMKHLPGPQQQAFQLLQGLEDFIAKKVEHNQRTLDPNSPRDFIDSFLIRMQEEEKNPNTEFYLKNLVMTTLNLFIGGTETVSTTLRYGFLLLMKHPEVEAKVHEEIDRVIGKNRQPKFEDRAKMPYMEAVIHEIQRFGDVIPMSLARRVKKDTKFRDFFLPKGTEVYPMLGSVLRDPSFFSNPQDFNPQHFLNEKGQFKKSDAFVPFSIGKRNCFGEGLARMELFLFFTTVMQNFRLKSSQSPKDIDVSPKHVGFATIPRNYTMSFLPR

{"columns": ["COMPOUND STRING", "inhibition (INH)"],
 "data": [
  ["C[C@@H]1CN(S(=O)(=O)N[C@@]2(C(=O)O)[C@H](C)[C@]2(C)c2ccccc2)CCN1c1ccc(C#N)s1", "Not Active"],
  ["C[C@@H]1[C@](C)(c2ccccc2)[C@]1(NS(=O)(=O)N1CCn2c(nc3cc(F)ccc32)C1)C(=O)O", "Not Active"],
  ["C[C@@H]1CN(S(=O)(=O)N[C@@]2(C(=O)O)[C@H](C)[C@]2(C)c2ccccc2)CCN1c1cc(C(F)F)on1", "Not Active"],
  ["C[C@@H]1[C@](C)(c2ccccc2)[C@]1(NS(=O)(=O)N1CCc2c(nc3cc(F)ccn23)C1)C(=O)O", "Not Active"]
]}

* * *

biological target: Disintegrin and metalloproteinase domain-containing protein 17 (Homo sapiens, UniProt P78536); assay: Inhibition of human recombinant TACE after 60 mins by fluorescence plate reader
Sequence (P78536 whole entry, the tested form may be a part): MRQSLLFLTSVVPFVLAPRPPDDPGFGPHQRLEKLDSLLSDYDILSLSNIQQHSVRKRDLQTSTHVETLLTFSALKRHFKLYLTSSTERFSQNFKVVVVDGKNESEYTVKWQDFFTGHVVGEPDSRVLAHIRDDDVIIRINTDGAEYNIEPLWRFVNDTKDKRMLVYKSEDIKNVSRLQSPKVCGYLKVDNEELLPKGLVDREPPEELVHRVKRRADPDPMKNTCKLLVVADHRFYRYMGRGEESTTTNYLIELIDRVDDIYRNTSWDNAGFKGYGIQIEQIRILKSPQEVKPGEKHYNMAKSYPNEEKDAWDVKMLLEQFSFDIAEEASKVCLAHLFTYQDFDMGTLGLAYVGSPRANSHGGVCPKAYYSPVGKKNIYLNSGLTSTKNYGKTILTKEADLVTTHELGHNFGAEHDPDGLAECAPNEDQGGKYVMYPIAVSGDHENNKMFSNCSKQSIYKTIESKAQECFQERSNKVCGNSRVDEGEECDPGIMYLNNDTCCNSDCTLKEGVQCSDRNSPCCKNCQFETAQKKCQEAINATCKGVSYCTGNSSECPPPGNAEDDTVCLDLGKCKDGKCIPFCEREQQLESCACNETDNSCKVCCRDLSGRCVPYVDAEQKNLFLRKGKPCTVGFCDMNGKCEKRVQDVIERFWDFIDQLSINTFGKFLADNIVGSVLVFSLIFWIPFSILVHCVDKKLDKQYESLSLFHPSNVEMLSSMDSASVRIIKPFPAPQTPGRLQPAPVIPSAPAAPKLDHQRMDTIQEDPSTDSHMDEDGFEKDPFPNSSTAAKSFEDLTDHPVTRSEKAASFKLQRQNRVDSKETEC
Each entry below carries its reported IC50.

{"columns": ["COMPOUND STRING", "IC50"],
 "data": [
  ["C[C@@H]1[C@H](c2ccccc2)[C@]1(NS(=O)(=O)N1CCN(c2ccc(Cl)cc2)[C@@H](C)C1)C(=O)O", "> 10 µM"],
  ["C[C@@H]1[C@H](c2ccccc2)[C@]1(NS(=O)(=O)c1cc2[nH]c3ccc(F)cc3c2s1)C(=O)O", "1.9 µM"],
  ["COc1ccc2c(c1)nc1n2CCN(S(=O)(=O)N[C@@]2(C(=O)O)[C@H](C)[C@@H]2c2ccccc2)C1", "> 10 µM"],
  ["C[C@@H]1[C@H](c2ccccc2)[C@]1(NS(=O)(=O)N1CCn2c(nc3cc(Cl)ccc32)C1)C(=O)O", "> 10 µM"]
]}

* * *

molecular target: Cytochrome P450 2C19 (Homo sapiens, UniProt P33261); test: Inhibition of CYP2C19 at up to 50 uM; format: ADME
Sequence (P33261 whole entry): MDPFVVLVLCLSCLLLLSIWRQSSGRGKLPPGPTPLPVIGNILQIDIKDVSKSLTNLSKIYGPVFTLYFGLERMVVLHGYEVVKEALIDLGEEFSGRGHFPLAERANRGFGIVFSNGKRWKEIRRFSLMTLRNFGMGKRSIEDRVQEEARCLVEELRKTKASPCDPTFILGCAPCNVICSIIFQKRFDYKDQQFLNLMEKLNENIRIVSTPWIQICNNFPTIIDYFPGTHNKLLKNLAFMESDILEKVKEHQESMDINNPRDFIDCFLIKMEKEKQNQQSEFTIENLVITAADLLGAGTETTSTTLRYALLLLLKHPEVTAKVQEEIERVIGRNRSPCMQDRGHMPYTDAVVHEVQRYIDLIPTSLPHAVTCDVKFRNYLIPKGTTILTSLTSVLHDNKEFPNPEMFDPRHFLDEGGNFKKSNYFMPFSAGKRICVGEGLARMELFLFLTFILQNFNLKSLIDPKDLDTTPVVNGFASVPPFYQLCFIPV

{"columns": ["COMPOUND STRING", "TESTED TARGET", "inhibition (INH)"],
 "data": [
  ["C[C@@H]1CN(S(=O)(=O)N[C@@]2(C(=O)O)[C@H](C)[C@]2(C)c2ccccc2)CCN1c1ccc(C#N)s1", "Cytochrome P450 2C19 (Homo sapiens, UniProt P33261)", "Not Active"],
  ["C[C@@H]1[C@](C)(c2ccccc2)[C@]1(NS(=O)(=O)N1CCc2c(nc3cc(F)ccn23)C1)C(=O)O", "Cytochrome P450 2C19 (Homo sapiens, UniProt P33261)", "Not Active"],
  ["C[C@@H]1[C@](C)(c2ccccc2)[C@]1(NS(=O)(=O)N1CCn2c(nc3cc(F)ccc32)C1)C(=O)O", "Cytochrome P450 2C19 (Homo sapiens, UniProt P33261)", "Not Active"],
  ["C[C@@H]1CN(S(=O)(=O)N[C@@]2(C(=O)O)[C@H](C)[C@]2(C)c2ccccc2)CCN1c1cc(C(F)F)on1", "Cytochrome P450 2C19 (Homo sapiens, UniProt P33261)", "Not Active"]
]}

* * *

target: Cytochrome P450 3A4 (Homo sapiens); test: Inhibition of CYP3A4 at up to 50 uM; type: ADME
Sequence (P08684 whole entry): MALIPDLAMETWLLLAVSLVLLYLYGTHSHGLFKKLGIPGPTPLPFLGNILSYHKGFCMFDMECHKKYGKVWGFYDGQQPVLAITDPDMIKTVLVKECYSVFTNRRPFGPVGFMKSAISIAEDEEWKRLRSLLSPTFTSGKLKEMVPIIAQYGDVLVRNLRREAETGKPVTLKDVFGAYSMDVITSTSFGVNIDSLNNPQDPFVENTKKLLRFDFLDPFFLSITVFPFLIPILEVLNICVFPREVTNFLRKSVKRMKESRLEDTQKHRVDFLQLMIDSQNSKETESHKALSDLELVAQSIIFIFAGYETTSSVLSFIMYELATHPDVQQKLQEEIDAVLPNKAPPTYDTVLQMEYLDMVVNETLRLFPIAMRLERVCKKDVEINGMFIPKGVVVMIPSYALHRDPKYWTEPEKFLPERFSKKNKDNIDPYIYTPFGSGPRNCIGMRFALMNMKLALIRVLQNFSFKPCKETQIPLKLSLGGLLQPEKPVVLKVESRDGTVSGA

{"columns": ["COMPOUND STRING", "TESTED TARGET", "inhibition (INH)"],
 "data": [
  ["C[C@@H]1[C@](C)(c2ccccc2)[C@]1(NS(=O)(=O)N1CCn2c(nc3cc(F)ccc32)C1)C(=O)O", "Cytochrome P450 3A4 (Homo sapiens)", "Not Active"],
  ["C[C@@H]1[C@](C)(c2ccccc2)[C@]1(NS(=O)(=O)N1CCc2c(nc3cc(F)ccn23)C1)C(=O)O", "Cytochrome P450 3A4 (Homo sapiens)", "Not Active"],
  ["C[C@@H]1CN(S(=O)(=O)N[C@@]2(C(=O)O)[C@H](C)[C@]2(C)c2ccccc2)CCN1c1ccc(C#N)s1", "Cytochrome P450 3A4 (Homo sapiens)", "Not Active"],
  ["C[C@@H]1CN(S(=O)(=O)N[C@@]2(C(=O)O)[C@H](C)[C@]2(C)c2ccccc2)CCN1c1cc(C(F)F)on1", "Cytochrome P450 3A4 (Homo sapiens)", "Not Active"]
]}

* * *

target: A disintegrin and metalloproteinase with thrombospondin motifs 5 (Homo sapiens, UniProt Q9UNA0); assay: Inhibition of human recombinant aggrecanase 2 after 150 mins by fluorescence plate reader
Sequence (Q9UNA0 whole entry): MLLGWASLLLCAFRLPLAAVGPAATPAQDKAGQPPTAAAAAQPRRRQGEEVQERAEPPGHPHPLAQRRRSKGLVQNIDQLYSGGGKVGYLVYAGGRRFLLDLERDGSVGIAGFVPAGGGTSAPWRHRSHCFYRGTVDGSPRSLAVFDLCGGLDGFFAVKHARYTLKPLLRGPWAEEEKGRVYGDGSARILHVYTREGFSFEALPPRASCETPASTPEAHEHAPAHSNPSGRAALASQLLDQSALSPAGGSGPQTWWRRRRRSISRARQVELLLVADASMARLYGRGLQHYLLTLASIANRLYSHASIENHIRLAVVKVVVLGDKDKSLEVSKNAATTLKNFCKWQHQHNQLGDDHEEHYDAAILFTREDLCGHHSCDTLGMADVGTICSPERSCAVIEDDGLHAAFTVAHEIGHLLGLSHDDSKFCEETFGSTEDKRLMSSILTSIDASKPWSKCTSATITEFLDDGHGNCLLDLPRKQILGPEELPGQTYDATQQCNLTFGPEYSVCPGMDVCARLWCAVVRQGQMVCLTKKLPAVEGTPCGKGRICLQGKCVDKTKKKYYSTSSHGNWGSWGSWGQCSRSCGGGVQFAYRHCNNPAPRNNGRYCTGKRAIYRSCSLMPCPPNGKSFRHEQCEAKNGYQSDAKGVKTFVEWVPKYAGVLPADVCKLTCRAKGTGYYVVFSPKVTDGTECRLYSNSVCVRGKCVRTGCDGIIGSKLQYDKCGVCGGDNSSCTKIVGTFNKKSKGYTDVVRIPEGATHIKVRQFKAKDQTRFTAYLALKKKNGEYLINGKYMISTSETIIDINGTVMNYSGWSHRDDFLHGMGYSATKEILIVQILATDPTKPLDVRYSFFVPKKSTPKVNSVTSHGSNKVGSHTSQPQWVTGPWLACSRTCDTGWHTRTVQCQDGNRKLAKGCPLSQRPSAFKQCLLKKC
pIC50: −log10 of the molar value.
MEASURED PARAMETER: pIC50

{"columns": ["COMPOUND STRING", "MEASURED PARAMETER", "RELATIONAL OPERATOR", "REPORTED"],
 "data": [
  ["C[C@@H]1[C@H](c2ccccc2)[C@]1(NS(=O)(=O)c1cc2[nH]c3cc(Cl)ccc3c2s1)C(=O)O", "pIC50", "=", 8.54],
  ["C[C@@H]1[C@H](c2ccccc2)[C@]1(NS(=O)(=O)c1cc2[nH]c3cc(F)ccc3c2s1)C(=O)O", "pIC50", "=", 8.08],
  ["C[C@@H]1CN(S(=O)(=O)N[C@@]2(C(=O)O)[C@H](C)[C@]2(C)c2ccccc2)CCN1c1cc(C(F)F)on1", "pIC50", "=", 7.77],
  ["COc1ccc2c(c1)nc1n2CCN(S(=O)(=O)N[C@@]2(C(=O)O)[C@H](C)[C@@H]2c2ccccc2)C1", "pIC50", "=", 6.48],
  ["Cc1cc(S(=O)(=O)N[C@@]2(C(=O)O)[C@H](C)[C@@H]2c2ccccc2)sc1-n1cc(Cl)cn1", "pIC50", "<", 6.00],
  ["COc1cnn(-c2ccc(S(=O)(=O)N[C@@]3(C(=O)O)[C@H](C)[C@@H]3c3ccccc3)s2)c1", "pIC50", "=", 7.77],
  ["C[C@@H]1[C@H](c2ccccc2)[C@]1(NS(=O)(=O)N1Cc2nc3cc(Cl)ccn3c2C1)C(=O)O", "pIC50", "=", 7.18],
  ["C[C@@H]1[C@H](c2ccccc2)[C@]1(NS(=O)(=O)N1CCn2c(nc3cc(Cl)ccc32)C1)C(=O)O", "pIC50", "=", 7.22]
]}

* * *

molecular target: Matrix metalloproteinase-14 (Homo sapiens, UniProt P50281); experiment: Inhibition of human recombinant MMP14 after 60 mins by fluorescence plate reader
pIC50: −log10 of the molar value.
Each entry below carries its reported pIC50.

{"columns": ["COMPOUND STRING", "TESTED TARGET", "pIC50"],
 "data": [
  ["C[C@@H]1[C@H](c2ccccc2)[C@]1(NS(=O)(=O)N1CCn2c(nc3cc(Cl)ccc32)C1)C(=O)O", "Matrix metalloproteinase-14 (Homo sapiens, UniProt P50281)", 6.21],
  ["C[C@@H]1CN(S(=O)(=O)N[C@@]2(C(=O)O)[C@H](C)[C@@H]2c2ccccc2)CCN1c1ccc(C#N)s1", "Matrix metalloproteinase-14 (Homo sapiens, UniProt P50281)", 5.22],
  ["Cc1ccc2c(c1)nc1n2CCN(S(=O)(=O)N[C@@]2(C(=O)O)[C@H](C)[C@@H]2c2ccccc2)C1", "Matrix metalloproteinase-14 (Homo sapiens, UniProt P50281)", 6.05],
  ["C[C@@H]1[C@H](c2ccccc2)[C@]1(NS(=O)(=O)c1cc2[nH]c3cc(Cl)ccc3c2s1)C(=O)O", "Matrix metalloproteinase-14 (Homo sapiens, UniProt P50281)", 7.77]
]}

* * *

assay: Half life in Sprague-Dawley rat at 10 mg/kg, po; type: ADME, organism-based; set-up: dose 10 mg/kg, route oral; conditions: in vivo
Each entry below carries its reported half-life.
MEASURED PARAMETER: half-life (h)

{"columns": ["COMPOUND STRING", "REPORTED"],
 "data": [
  ["C[C@@H]1CN(S(=O)(=O)N[C@@]2(C(=O)O)[C@H](C)[C@]2(C)c2ccccc2)CCN1c1ccc(C#N)s1", 4.5],
  ["C[C@@H]1[C@](C)(c2ccccc2)[C@]1(NS(=O)(=O)N1CCn2c(nc3cc(F)ccc32)C1)C(=O)O", 2],
  ["C[C@@H]1[C@](C)(c2ccccc2)[C@]1(NS(=O)(=O)N1CCc2c(nc3cc(F)ccn23)C1)C(=O)O", 4],
  ["C[C@@H]1CN(S(=O)(=O)N[C@@]2(C(=O)O)[C@H](C)[C@]2(C)c2ccccc2)CCN1c1cc(C(F)F)on1", 1.9]
]}

* * *

target: Disintegrin and metalloproteinase domain-containing protein 17 (Homo sapiens, UniProt P78536); experiment: Inhibition of human recombinant TACE after 60 mins by fluorescence plate reader
Each entry below carries its reported IC50.
MEASURED PARAMETER: IC50 (nM)

{"columns": ["COMPOUND STRING", "RELATIONAL OPERATOR", "REPORTED"],
 "data": [
  ["O=C(NO)[C@@H](NCC1CC1)[C@@H](Cc1cccc(O)c1)C(=O)N[C@H]1c2ccccc2C[C@H]1O", "=", 430],
  ["C[C@@H]1[C@H](c2ccccc2)[C@]1(NS(=O)(=O)N1CCn2c(cc3cc(Cl)ccc32)C1)C(=O)O", ">", 10000],
  ["COc1cnn(-c2ccc(S(=O)(=O)N[C@@]3(C(=O)O)[C@H](C)[C@@H]3c3ccccc3)s2)c1", "=", 1600],
  ["Cc1ccc2c(c1)nc1n2CCN(S(=O)(=O)N[C@@]2(C(=O)O)[C@H](C)[C@@H]2c2ccccc2)C1", ">", 10000]
]}
